Reference for the values: PubChem BioAssay (NCI)

Test system: SF-295 CNS
Assay: NCI tumour cell line growth inhibition, 48 h
# Lookup of reported TGI keyed by entry

Observe how each entry below is paired with its result.
[
  {
    "Compound": "Cn1cnc([N+](=O)[O-])c1Sc1nccn1-c1ccccc1",
    "TGI": "> 100 µM"
  },
  {
    "Compound": "CC(=O)OC12c3ccccc3C(c3ccccc31)C1C(=O)N(c3ccccc3O)C(=O)C12 (stereo not drawn)",
    "TGI": "> 100 µM"
  }
]

Please look up its TGI: `COc1ccc2cc(NC(=O)Nn3cnnc3)ccc2c1`
> 100 µM

* * *

System: UACC-62 melanoma
Experiment: NCI tumour cell line growth inhibition, 48 h
Measured endpoint: TGI

Observe how each entry below is paired with its result.
[
  {
    "Molecule": "Cc1ccc(C2=NN=C3C(c4ccccc4)=Nc4ccccc4N3C2)cc1",
    "TGI": "> 100 µM"
  },
  {
    "Molecule": "CC(=O)Nc1ccc(S(=O)(=O)N/N=C/c2cc(I)cc([N+](=O)[O-])c2O)cc1",
    "TGI": "90.9 µM"
  },
  {
    "Molecule": "Cc1ccc(OC2CC(n3cnc4c(=O)[nH]c(Br)nc43)OC2Oc2ccc(C)cc2)cc1 (stereo unspecified)",
    "TGI": "53.7 µM"
  },
  {
    "Molecule": "CC1(C)OP(=O)(c2ccccc2)C=C1Br (stereo unspecified)",
    "TGI": "> 100 µM"
  },
  {
    "Molecule": "CCOC(=O)Cc1csc(Nc2nc(O)c(C3=c4ccccc4=NC3=O)s2)n1",
    "TGI": "34.6 µM"
  }
]

Please look up its TGI: `COc1cc(/C=C2\N=C(c3ccccc3)N(c3ccc4c(c3)Sc3cc(N5C(=O)/C(=C/c6cc(OC)c(OC)c(OC)c6)N=C5c5ccccc5)ccc3N4)C2=O)cc(OC)c1OC`
31.4 µM

Please look up its TGI: Cc1nn(C(=O)c2ccc(Cl)cc2)c2c1C(c1ccccc1)SC(N)=N2 (stereo unspecified)
> 10 µM

Please look up its TGI: `CC(=O)N[C@@H](Cc1ccc(OP(=O)(O)O)cc1)C(=O)N[C@H]1CCC(=O)N2CCC[C@@H](C(=O)NCc3cccc4ccccc34)N2C1=O`
> 25 µM

Please look up its TGI: `COc1ccc2cc(NC(=O)Nn3cnnc3)ccc2c1`
> 100 µM

Please look up its TGI: NCCSC1(O)C(=O)c2ccccc2-c2ccccc21 (stereo unspecified)
2.91 µM

Please look up its TGI: `CCN1C2=C(SC(=S)C1=C1SC(C(=O)c3ccccc3)=C(C(=O)c3ccccc3)S1)SC(=Nc1ccccc1)C2=O`
> 70.1 µM

Please look up its TGI: Cc1ccc(NC(=O)CC2SC(=Nc3cccc(Cl)c3C)NC2=O)cc1 (stereo unspecified)
> 100 µM

Please look up its TGI: `N#Cc1nc(N)c(C#N)[nH]1`
> 100 µM

Please look up its TGI: `N=C(N)SCCSC(=N)N`
> 100 µM

Please look up its TGI: S=C1NC(c2ccccc2)=NC(Cc2ccccc2)(c2ccccc2)N1c1ccccc1 (stereo unspecified)
> 100 µM

Please look up its TGI: COc1cc(Br)cc2c1O[C@H]1C(=O)CC3CC21CCN3C (stereo partly specified)
> 100 µM

Please look up its TGI: N#CC(NNC(=O)Cc1ccccc1)c1ccc(O)cc1 (stereo unspecified)
> 100 µM

Please look up its TGI: `O=c1[nH]ncc2[nH]c(-c3ccccc3)cc12`
> 100 µM

Please look up its TGI: CC1(C)CCCCC1/C=C/C(CC(O)(C(F)(F)F)C(F)(F)F)=N\Nc1ccc([N+](=O)[O-])cc1[N+](=O)[O-] (stereo unspecified)
13.9 µM

Please look up its TGI: `CN1C(=O)CNS1(=O)=O`
> 100 µM

Please look up its TGI: `O=C(O)c1ccc(NCn2nc(-c3ccccc3O)oc2=S)cc1O`
> 100 µM

Please look up its TGI: `CCCCN(CCCC)C1(c2cc3ccccc3s2)CCCCC1`
31.1 µM

Please look up its TGI: `Cc1cc(C)c2c(=O)cc(-c3ccc(F)cc3)[nH]c2n1`
> 100 µM

Please look up its TGI: O=C1C2=C(c3ccccc31)C(c1ccccc1Cl)NC(=S)N2 (stereo unspecified)
> 100 µM

Please look up its TGI: CNC(=O)N(CCCC(NC(C)=O)C(=O)NCc1ccccc1)Cc1ccccc1 (stereo unspecified)
> 100 µM

Please look up its TGI: `COc1ccc2c(c1)C(=O)/C(=C/c1ccccc1)C2`
> 100 µM

Please look up its TGI: `CNC(=O)Nn1c(SC)nc2ccccc21`
> 100 µM

Please look up its TGI: `CC(=O)NS(=O)(=O)c1ccc(-n2nc(-c3ccccc3)cc2-c2cc(O)ccc2O)cc1`
> 100 µM

Please look up its TGI: C=C1CC2(C)CCC(OC(=O)C3(C)OC3C)C(C)(OC(C)=O)C2CC1=C(C)C (stereo unspecified)
> 100 µM

Please look up its TGI: `CCOC(=O)Nc1nc(-c2ccccc2)c(C)s1`
> 100 µM

Please look up its TGI: CCOC(=O)C1C(c2ccccc2)C2(C#N)C(=N)OC1(C)C2(C#N)C#N (stereo unspecified)
82.6 µM
